Values from ChEMBL document CHEMBL3774374

assay-overview: Cytotoxicity against human SLOS fibroblasts at 5 uM after 5 days by Cell Titer assay
Format: cell-based
measurement-context: fibroblast, 120 h
property-measured: Activity

1. CN(C)CCOc1ccc(/C(=C(/CCCl)c2ccccc2)c2ccccc2)cc1 :: Toxic
2. COc1ccc2c(c1)OC(C)(C)[C@@H](c1ccccc1)[C@@H]2c1ccc(OCCN2CCCC2)cc1 :: Toxic
3. C[C@]12CC[C@@H]3c4ccc(O)cc4C[C@@H](CCCCCCCCC[S+]([O-])CCCC(F)(F)C(F)(F)F)[C@H]3[C@@H]1CC[C@@H]2O (some centres undefined) :: Toxic

---

target-of-assay: Delta(24)-sterol reductase (Mus musculus) (UniProt Q8VCH6)
Sequence (Q8VCH6 whole entry): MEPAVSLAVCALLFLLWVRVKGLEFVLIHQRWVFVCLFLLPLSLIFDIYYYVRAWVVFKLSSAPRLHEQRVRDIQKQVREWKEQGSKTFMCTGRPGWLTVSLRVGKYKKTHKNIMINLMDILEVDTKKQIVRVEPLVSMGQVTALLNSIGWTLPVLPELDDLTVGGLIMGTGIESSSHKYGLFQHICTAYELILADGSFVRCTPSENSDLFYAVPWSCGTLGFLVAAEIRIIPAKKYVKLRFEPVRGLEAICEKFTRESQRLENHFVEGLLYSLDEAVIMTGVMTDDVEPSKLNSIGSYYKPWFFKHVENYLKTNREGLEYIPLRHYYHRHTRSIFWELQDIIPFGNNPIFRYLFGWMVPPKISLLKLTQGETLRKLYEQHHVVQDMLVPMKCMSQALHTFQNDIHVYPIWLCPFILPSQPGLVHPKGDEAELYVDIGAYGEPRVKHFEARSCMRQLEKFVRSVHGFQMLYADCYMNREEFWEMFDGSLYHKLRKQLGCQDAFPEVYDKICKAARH
assay-overview: Inhibition of DR24 in mouse Neuro2a cells assessed as decrease in 7-DHC levels at 1 uM by LC-MS/GC-MS analysis
Type: cell-based
The source made the active and inactive calls. The calls are words filed in the database; no cut-off is given here.
property-measured: Decrease in 7-DHC levels (active/inactive call)

1) O=C(O)C[C@H](O)C[C@H](O)/C=C/c1c(C2CC2)nc2ccccc2c1-c1ccc(F)cc1 :: Active
2) Oc1ccc2c(c1)CC[C@H](c1ccccc1)[C@@H]2c1ccc(OCCN2CCCC2)cc1 :: Active
3) Cc1c(-c2ccc(O)cc2)n(Cc2ccc(OCCN3CCCCCC3)cc2)c2ccc(O)cc12 :: Active
4) CC/C(=C(\c1ccccc1)c1ccc(OCCN(C)C)cc1)c1ccccc1 :: Active
5) O=C(c1ccc(OCCN2CCCCC2)cc1)c1c(-c2ccc(O)cc2)sc2cc(O)ccc12 :: Active
6) CCN(CC)CCOc1ccc(C(=C(Cl)c2ccccc2)c2ccccc2)cc1 :: Active
